experiment: Oral bioavailability in horse at 20 mg/kg administered as single dose; type: ADME, organism-based, Equus caballus; conditions: in vivo
Value kind: bioavailability (%)
Give bare numbers, in %.

Identify bioavailability associated with the molecule Nc1nc2c(ncn2COCCO)c(=O)[nH]1 [ACYCLOVIR] 2.8

* * *

assay: Total mean residence time in horse at 10 mg/kg, iv after 1 hr by two-compartmental study; assay type: ADME, organism-based, Equus caballus; parameters: dose 10 mg/kg, route intravenous; details: in vivo
Value kind: MRT
Form field: result (number plus unit)

Identify MRT associated with the compound Nc1nc2c(ncn2COCCO)c(=O)[nH]1 5.38 h

The reported numbers originate from ChEMBL document CHEMBL1151420.
